- Tested on: MS2 coat protein
- ASSAY SUMMARY: apparent KD of MS2 coat protein, switch ON state; designed switch direction (-1 OFF switch, 1 ON switch): -1; higher = weaker reporter binding
- CONDITION SET: FMN input: 0 or 200 uM; Eterna round: R93 (includes R88 designs)
OBSERVATION TYPE: apparent KD of MS2 coat protein (nM)
Field: numeric (nM). Do not append units.

Example sequences with recorded apparent KD of MS2 coat protein:
AAAACUGGAGGAUAUACGUACAUGUCAAAAGACGUGAAGGGACAUGAGGAUCACCCAUGUAGAAGGCUAGAAAA [JL Stem Breaker 8] : 74.2
AAAAUGUGAGGAUAUGUACGAAAAAAUAAAAAAAUAAAAGUACAGAAGGCACAUGAGGAUCACCCAUGUGGGAA [EX4 399: Minimal 12] : 158
AAAGUGUGAGGAUAUGUCAAAGGUCACGAAAGUGACAAAGGGCAGAAGGUACAUGAGGAUCACCCAUGUAAAAA [Opal 1] : 24

get_value(item= AAAACUGGAGGAUAUACAUGAGGAUCACCCAUGUGUGGGUAGACUGUGUCGGCGUCAGGUAGAAGGCCACAAAA [Gilly Gone Silly 31 - Jieux - Exclusion 3] , readout=apparent KD of MS2 coat protein) returns 185

The measured apparent KD of MS2 coat protein associated with ACGUGACAUGAGGAUCACCCAUGUUAGGAUAUGCGAAUUCAAAAUCAGCUAACGCUGAGCAGAAGGAACAUGGU [Esriange] reads 36.2

Looking up AACAGUACAGGAUAUACAUGAGGAUCACCCAUGUGAGCAUUAAAAGGCGUACCUAAAAGUAGAAGGGUACUGGA [JL Maslow Revisted mod 22] , I found its apparent KD of MS2 coat protein recorded as 24.8

The measured apparent KD of MS2 coat protein associated with AAGGGACAUGAGGAUCACCCAUGUGAGGAUAUGAUGCGAAUAAAGAAAUAAUAAAGCAUCAGAAGGCACACCAA [Mat - Exclusion 1 - Eli mod - D67] reads 82.4

For AGUCGGCGAGGAUAUACAUGAGGAUCACCCAUGUGAGAGAAAAAAGUGAGUCAGAAAAGUAGAAGGCGCUGACA [JL Lego Mod 4] the sequence record lists apparent KD of MS2 coat protein as 63.4

The value of apparent KD of MS2 coat protein measured for the sequence AAUAAGUGAGGAUAUCCAAAUAGUAGAUAAGAUUCCCUAAAGGAGAAGGCACAUGAGGAUCACCCAUGUAAAUA [JR_Exc004_Sub006] turned out to be 36.1

* * *

- System: MS2 coat protein
- ASSAY SUMMARY: apparent KD of MS2 coat protein; designed switch direction (-1 OFF switch, 1 ON switch): -1; higher = weaker reporter binding
- CONDITION SET: input ligand: microRNA oligo, concentration not stated
apparent KD of MS2 coat protein overview
Quick reminder: number only, in nM, skip the unit.

Lab note: measured apparent KD of MS2 coat protein of ACAUGAGGAUCACCCAUGUUUUUCGGGUACUCUUUUUACAGCAAGGAUAUGCAUUAUUUAUGUACGCAGAAGGUGCUUUACGUC [JR_ExcNG3_Sub065] (Eterna round: R96, puzzle: Exclusion NG 3) was 82.9

Record UAGAUUCAUUCCUCUAUAAACAUGAGGAUCACCCAUGUAAGUGAGGAUAUAGUAGGAGUUGUAUACUAGAAGGCACUUAGUUUU [JR_ExcNG3_Sub049] (Eterna round: R96, puzzle: Exclusion NG 3) , field apparent KD of MS2 coat protein: 10.7

Query CCAUGGGUGCGAGGAUAUAGCCCAUGGGAAGAGCUAGAAGGCGCAGACAUGAGGAUCACCCAUGUGUUCAUGAGGAGGUGGACA (Eterna round: R96, puzzle: Exclusion NG 1) yields apparent KD of MS2 coat protein of 54.8

Value of measured apparent KD of MS2 coat protein for the entry GCAGCUAAGUGUAAUAACACAAUACAUGAGGAUCACCCAUGUGAGGAUAUGGACUGGAUUACAGUCCAGAAGGCACAAUGCUGC [Zipper Style 4] (Eterna round: R96, puzzle: Exclusion NG 3) : 16.2

Documented apparent KD of MS2 coat protein of CUCGUGCAGCUUUGCUGUACGAGUACAUGAGGAUCACCCAUGUAGGAUAUGGUACGCUUUGCGUGCUAGAAGGAUAUGUGUAGG [JL EXNG3 1.38] (Eterna round: R96, puzzle: Exclusion NG 3) : 18.4

sequence UUGUUGUGUGUAGGAUAUGCAUGUUAUUAUUAUGCAGAAGGACAUGAGGAUCACCCAUGUGUAUUAUUAUUAUAUAUUAUAUAU [Title] (Eterna round: R96, puzzle: Exclusion NG 1) , apparent KD of MS2 coat protein observed: 13.8

# sequence UGUUGUCGCGUAGGAUAUGGCCAACAGGCCCUAGGAUAUGGGAAACCAGAAGGAGCGCCAACAGGCGAGAAGGACGGGACAACU [pwkr exNG2 2xF7 2xFMN.19] (Eterna round: R96, puzzle: Exclusion NG 2) ; its apparent KD of MS2 coat protein = 451

// sample GCAGCACAUGUAGGAUAUCUGCACGUUUAGUGCAGAGAAGGACAUGAGGAUCACCCAUGUAAUUAAGAUCAAUUAUUAAGCUGC [ENG1/3-C2] (Eterna round: R96, puzzle: Exclusion NG 1) , its apparent KD of MS2 coat protein was 32.1

GET /value?item= ACAUGAGGAUCACCCAUGUCCGGCUGGUCCGUCUCGGCUGUCGAGGAUAUGGCUCGGUGUCCGCGCUAGAAGGUGGGAGCCGGU [Aenatbe mod 74] (Eterna round: R96, puzzle: Exclusion NG 3) &field=apparent KD of MS2 coat protein returns 54

Lab note: measured apparent KD of MS2 coat protein of UUUGUUUUGCAAGGAUAUGUUUAAUUUUAUUUUCCUUACACAUGAGGAUCACCCAUGUUAUACUUACAGAAGGUGCGUAAUUUG [Excl-NG2-LRO04] (Eterna round: R96, puzzle: Exclusion NG 2) was 165

For reference, reported apparent KD of MS2 coat protein for ACAUGUAUUGCAGGAUAUGGGACACAUGAGGAUCACCCAUGUGACUACAUGUAAUGCCACGGGUCUCAGAAGGGUAUGUACAUG [Ex NG2 #42] (Eterna round: R96, puzzle: Exclusion NG 2) stands at 22.9

Query AAAAGAAUAAAAGGAUAUAGGAAAGGAAGUGUACUAGAAGGUUUGUUAACAUGAGGAUCACCCAUGUGCUCAGACACAGGGUGC [PowerStrip EXNG 1.3] (Eterna round: R96, puzzle: Exclusion NG 1) yields apparent KD of MS2 coat protein of 91.5
